System under test: α-ketoamide reductase (Saccharomyces cerevisiae)
Construct: 500 g of live baker's yeast was purchased from Oriental yeast and the fungal cells were used to purify the enzyme; tissue Oriental Yeast; host or cells: live baker's yeast cells; enzyme purified to a single SDS-PAGE band
Sequence (Q07551 whole entry): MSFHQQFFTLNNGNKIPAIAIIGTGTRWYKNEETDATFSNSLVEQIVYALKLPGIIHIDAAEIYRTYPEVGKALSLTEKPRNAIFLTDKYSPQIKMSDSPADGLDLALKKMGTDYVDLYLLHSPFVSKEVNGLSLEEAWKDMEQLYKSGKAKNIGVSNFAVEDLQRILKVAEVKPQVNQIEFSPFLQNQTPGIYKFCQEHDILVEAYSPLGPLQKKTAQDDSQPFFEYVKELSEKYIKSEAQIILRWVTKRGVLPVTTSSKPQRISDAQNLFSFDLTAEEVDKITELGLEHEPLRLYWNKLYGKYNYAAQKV
Assay method text: Substrate specificity of α-ketoamide reductase (relative reducing activity)
Assay type: biochemical
Condition label: activity of reducing 2-chlorobenzoyl formamide taken as 100, substrate concentration 1 mM
Property: Reducing activity (%)

>  <Compound>
CCOC(=O)C(=O)CC [drawing 7]

>  <Uom>
%

>  <Readout value>
33

$$$$
>  <Compound>
O=C1CCCCC1=O

>  <Uom>
%

>  <Readout value>
10

$$$$
>  <Compound>
CCOC(=O)C(C)C(C)=O (stereo not shown)

>  <Uom>
%

>  <Readout value>
0

$$$$
>  <Compound>
NC(=O)C(=O)c1cccc(Cl)c1

>  <Uom>
%

>  <Readout value>
143

$$$$
>  <Compound>
CCOC(=O)C(=O)c1ccccc1 [drawing 5]

>  <Uom>
%

>  <Readout value>
32

$$$$
>  <Compound>
CCOC(=O)CC(=O)c1ccccc1

>  <Uom>
%

>  <Readout value>
0

$$$$
>  <Compound>
CCCC(=O)C(=O)OCC [drawing 8]

>  <Uom>
%

>  <Readout value>
46

$$$$
>  <Compound>
CCOC(=O)CC(=O)CCl

>  <Uom>
%

>  <Readout value>
4

$$$$
>  <Compound>
NC(=O)C(=O)c1ccccc1

>  <Uom>
%

>  <Readout value>
59

$$$$
>  <Compound>
O=CC(=O)c1ccccc1

>  <Uom>
%

>  <Readout value>
120

$$$$
>  <Compound>
CCOC(=O)C(Cl)C(C)=O (stereo not shown)

>  <Uom>
%

>  <Readout value>
0

$$$$
>  <Compound>
O=C(CCl)c1ccccc1

>  <Uom>
%

>  <Readout value>
0

$$$$
>  <Compound>
CCOC(=O)C(C)=O [drawing 6]

>  <Uom>
%

>  <Readout value>
9

$$$$
>  <Compound>
COCC(C)=O

>  <Uom>
%

>  <Readout value>
0

$$$$
>  <Compound>
CC(=O)COC(C)=O

>  <Uom>
%

>  <Readout value>
0

$$$$
>  <Compound>
CC(C)C(=O)C(=O)O

>  <Uom>
%

>  <Readout value>
0

$$$$

----------
Item-by-item account of Optical purity (%)
System under test: α-ketoamide reductase (Saccharomyces cerevisiae)
Construct: 500 g of live baker's yeast was purchased from Oriental yeast and the fungal cells were used to purify the enzyme; tissue Oriental Yeast; host or cells: live baker's yeast cells; enzyme purified to a single SDS-PAGE band
Assay method text: Stereoselectivity of α-ketoamide reductase (optical purity of reduction product)
Type: biochemical
Condition label: product of reduction; 0.2 U purified enzyme, 10 μmol substrate, 10 μmol NADPH, pH 7.0, 37° C., 6 hours

>  <Molecule>
CCCC(=O)C(=O)OCC [drawing 28]

>  <Optical purity (%)>
98%

$$$$
>  <Molecule>
CCOC(=O)C(C)=O [drawing 26]

>  <Optical purity (%)>
>99%

$$$$
>  <Molecule>
CCOC(=O)C(=O)C(C)C [drawing 30]

>  <Optical purity (%)>
>99%

$$$$
>  <Molecule>
CCOC(=O)C(=O)c1ccccc1 [drawing 31]

>  <Optical purity (%)>
97%

$$$$
>  <Molecule>
CCCCCC(=O)C(=O)OCC [drawing 29]

>  <Optical purity (%)>
>99%

$$$$
>  <Molecule>
CCOC(=O)C(=O)CC [drawing 27]

>  <Optical purity (%)>
>99%

$$$$
>  <Molecule>
NC(=O)C(=O)c1ccccc1Cl [drawing 25]

>  <Optical purity (%)>
>99%

$$$$
